Biological target: Norepinephrine transporter (Rattus norvegicus, UniProt Q9WTR4)
Sequence (Q9WTR4 whole entry): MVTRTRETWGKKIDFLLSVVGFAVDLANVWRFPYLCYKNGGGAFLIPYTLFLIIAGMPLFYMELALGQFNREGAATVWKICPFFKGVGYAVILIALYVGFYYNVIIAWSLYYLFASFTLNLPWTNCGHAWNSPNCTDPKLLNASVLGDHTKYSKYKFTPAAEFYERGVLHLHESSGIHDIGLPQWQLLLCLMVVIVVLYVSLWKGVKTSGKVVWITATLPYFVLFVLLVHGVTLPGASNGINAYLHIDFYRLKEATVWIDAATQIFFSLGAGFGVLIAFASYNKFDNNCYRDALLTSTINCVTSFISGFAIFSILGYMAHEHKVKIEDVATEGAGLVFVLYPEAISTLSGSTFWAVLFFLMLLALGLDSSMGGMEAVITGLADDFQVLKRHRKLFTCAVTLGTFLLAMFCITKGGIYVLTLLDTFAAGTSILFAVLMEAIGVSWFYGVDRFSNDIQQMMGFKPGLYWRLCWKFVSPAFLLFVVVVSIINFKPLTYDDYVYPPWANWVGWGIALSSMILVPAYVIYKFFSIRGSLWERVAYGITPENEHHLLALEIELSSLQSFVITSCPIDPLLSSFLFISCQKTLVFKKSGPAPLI
Experiment: The compound was tested for binding affinity nisoxatine ligand
Label condition met when Ki is strictly below 7 µM; otherwise label condition not met.

1. C[C@H]1CN(CCCn2c3ccccc3c3ccccc32)C[C@H](C)N1CCCc1ccccc1	condition met
2. C[C@H]1CN(CCCn2c3ccc(Br)cc3c3cc(Br)ccc32)C[C@H](C)N1	condition met
3. C[C@H]1CN(CCCN(c2ccccc2)c2ccccc2)C[C@H](C)N1CCCc1ccccc1	condition met
4. C[C@H]1CN(CCCn2c3ccccc3c3cc(N)ccc32)C[C@H](C)N1	condition not met
5. c1ccc(N2CCN(CCCn3c4ccccc4c4ccccc43)CC2)cc1	condition met
6. C[C@H]1CN(CCCn2c3ccccc3c3cc([N+](=O)[O-])ccc32)C[C@H](C)N1	condition met
7. C[C@@H]1CN(CCCn2c3ccccc3c3ccccc32)C[C@H](C)N1 [RIMCAZOLE]	condition met
8. C[C@H]1CN(CCCn2c3ccccc3c3ccccc32)C[C@H](C)N1C	condition not met
